target: FGFR3 (UniProt P22607); assay: phosphorylation enrichment, bacterial display (enrichment ratio); higher = better substrate or ligand; peptides without Tyr show the background;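 also: 11-residue human phosphosite peptides and single-mutation variants displayed on the E. coli surface, counted by deep sequencing, each peptide's frequency after selection divided by its frequency in the unselected input library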;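 also: frequency after pTyr selection over input frequency; kinase dosed for 20-30% of maximal phosphorylation in three min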
Sequence (P22607 whole entry, looked up): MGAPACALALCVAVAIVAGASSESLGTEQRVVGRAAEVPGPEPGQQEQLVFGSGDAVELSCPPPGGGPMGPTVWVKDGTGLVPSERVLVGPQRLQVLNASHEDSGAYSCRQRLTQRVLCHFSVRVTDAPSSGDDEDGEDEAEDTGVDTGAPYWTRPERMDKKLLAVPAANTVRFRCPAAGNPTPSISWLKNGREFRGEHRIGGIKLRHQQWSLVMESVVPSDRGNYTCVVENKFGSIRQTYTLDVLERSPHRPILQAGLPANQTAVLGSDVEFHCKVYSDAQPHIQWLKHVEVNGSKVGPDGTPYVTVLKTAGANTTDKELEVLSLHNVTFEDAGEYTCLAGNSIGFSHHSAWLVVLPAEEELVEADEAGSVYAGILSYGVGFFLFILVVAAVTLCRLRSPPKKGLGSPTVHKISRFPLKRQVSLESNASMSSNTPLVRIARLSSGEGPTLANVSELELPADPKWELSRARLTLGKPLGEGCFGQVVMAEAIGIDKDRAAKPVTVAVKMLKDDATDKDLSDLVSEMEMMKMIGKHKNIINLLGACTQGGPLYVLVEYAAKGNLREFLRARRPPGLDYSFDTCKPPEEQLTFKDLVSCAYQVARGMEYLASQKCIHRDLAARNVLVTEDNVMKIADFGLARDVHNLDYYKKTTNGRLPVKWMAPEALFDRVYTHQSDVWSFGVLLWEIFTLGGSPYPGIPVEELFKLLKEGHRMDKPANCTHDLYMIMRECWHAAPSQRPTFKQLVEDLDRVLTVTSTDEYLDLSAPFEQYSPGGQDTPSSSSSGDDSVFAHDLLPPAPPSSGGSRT
Bucketed by reported phosphorylation enrichment, buckets being bottom bin (below 0.6), middle bin (0.6 to below 0.8), top bin (0.8 or more)

{"Seq String": "TRNVRYLTLDI [AKR1C2_Y305_N300T]", "Experimental System": "FGFR3 (UniProt P22607)", "Class Label": "middle bin"}
{"Seq String": "LITTLYIGFLD [KCNQ1_Y267_G272D]", "Experimental System": "FGFR3 (UniProt P22607)", "Class Label": "top bin"}
{"Seq String": "SVVVPYETPEV [TP53_Y220_P222T]", "Experimental System": "FGFR3 (UniProt P22607)", "Class Label": "middle bin"}
{"Seq String": "GLRSFYETSKM [MAGED2_Y449_YF]", "Experimental System": "FGFR3 (UniProt P22607)", "Class Label": "bottom bin"}
{"Seq String": "GIVEEYQLPYY [BMPR1A_Y453]", "Experimental System": "FGFR3 (UniProt P22607)", "Class Label": "top bin"}
{"Seq String": "DEIPLYLKGGV [COX7A2_Y44]", "Experimental System": "FGFR3 (UniProt P22607)", "Class Label": "middle bin"}

INPUT: GET /class?item= FQKNSYSEELR [LMNA_Y211_I210S]
OUTPUT: bottom bin

INPUT: GET /class?item= VSSSDYFSFVL [USP24_Y2138_Y2134S]
OUTPUT: top bin

---

target: Fyn (UniProt P06241); experiment: phosphorylation enrichment, bacterial display (enrichment ratio); higher = better substrate or ligand; peptides without Tyr show the background
Sequence (P06241 whole entry, looked up): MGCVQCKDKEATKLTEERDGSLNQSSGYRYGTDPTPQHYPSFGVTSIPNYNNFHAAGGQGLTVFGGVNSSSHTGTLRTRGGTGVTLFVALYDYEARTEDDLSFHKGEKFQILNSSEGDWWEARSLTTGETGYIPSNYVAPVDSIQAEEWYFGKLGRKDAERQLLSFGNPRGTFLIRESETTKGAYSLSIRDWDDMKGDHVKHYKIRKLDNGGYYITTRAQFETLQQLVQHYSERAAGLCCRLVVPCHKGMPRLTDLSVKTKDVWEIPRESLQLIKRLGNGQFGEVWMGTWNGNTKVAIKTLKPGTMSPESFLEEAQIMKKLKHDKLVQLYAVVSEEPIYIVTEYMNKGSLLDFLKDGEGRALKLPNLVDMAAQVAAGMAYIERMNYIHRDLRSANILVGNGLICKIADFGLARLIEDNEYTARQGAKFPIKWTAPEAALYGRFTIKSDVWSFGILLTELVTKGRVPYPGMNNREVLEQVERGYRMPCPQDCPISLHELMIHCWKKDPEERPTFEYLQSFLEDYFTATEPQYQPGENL
The following sequences are listed with their measured phosphorylation enrichment values.
// print number alone

Some solved cases for reference:
{"Seq String": "KSSDVYVSYDC [SORL1_Y136_Y141C]", "phosphorylation enrichment": 4.79}
{"Seq String": "RMLRKYQELMS [KRT74_Y425_E424K]", "phosphorylation enrichment": 0.509}

INPUT: System Fyn (UniProt P06241). Read-out phosphorylation enrichment. Item RGDCMYAPLLG [AR_Y269] . Report value.
OUTPUT: 8.2

INPUT: System Fyn (UniProt P06241). Read-out phosphorylation enrichment. Item AQVDTYCRHNY [HLA-DRB1_Y107_A103Q] . Report value.
OUTPUT: 0.549

INPUT: System Fyn (UniProt P06241). Read-out phosphorylation enrichment. Item IVAEFYDNLPH [DEGS1_Y284_A280V_YF] . Report value.
OUTPUT: 0.549

INPUT: System Fyn (UniProt P06241). Read-out phosphorylation enrichment. Item FSQQTYFRVSN [ABCD1_Y180_YF] . Report value.
OUTPUT: 0.435

INPUT: System Fyn (UniProt P06241). Read-out phosphorylation enrichment. Item NGSFRYVIISQ [LRP1B_Y1988] . Report value.
OUTPUT: 0.528

INPUT: System Fyn (UniProt P06241). Read-out phosphorylation enrichment. Item EHTTLYSDNST [KANSL1_Y223_N225D] . Report value.
OUTPUT: 0.407

INPUT: System Fyn (UniProt P06241). Read-out phosphorylation enrichment. Item YLEKYYKFGCR [NNMT_Y25_S29C] . Report value.
OUTPUT: 0.549

INPUT: System Fyn (UniProt P06241). Read-out phosphorylation enrichment. Item KNNDGYTDFAE [MCFD2_Y135_I136T_YF] . Report value.
OUTPUT: 0.522

INPUT: System Fyn (UniProt P06241). Read-out phosphorylation enrichment. Item GHNDVYILEHV [GRIN2A_Y1423_S1425L] . Report value.
OUTPUT: 4.4

INPUT: System Fyn (UniProt P06241). Read-out phosphorylation enrichment. Item HRGSLYLAIEF [TEK_Y899_Y897S_YF] . Report value.
OUTPUT: 0.538

INPUT: System Fyn (UniProt P06241). Read-out phosphorylation enrichment. Item MLEVSYVDRNS [F10_Y384_P383S] . Report value.
OUTPUT: 0.375

INPUT: System Fyn (UniProt P06241). Read-out phosphorylation enrichment. Item WKEREYEVVRD [CPS1_Y634_I632R] . Report value.
OUTPUT: 0.599

INPUT: System Fyn (UniProt P06241). Read-out phosphorylation enrichment. Item WQQQSYLFSGI [CTNNB1_Y30_D32Y_YF] . Report value.
OUTPUT: 0.454

INPUT: System Fyn (UniProt P06241). Read-out phosphorylation enrichment. Item GPSTPYTKSKR [SMARCC2_Y324] . Report value.
OUTPUT: 0.405

Data credit: the supplement of paper PMC10065799
